Measured values drawn from ChEMBL document CHEMBL4251566 for this set.

EXPERIMENTAL TARGET: UniProt Q06187
TEST PROTOCOL: Inhibition of recombinant full-length N-terminal His-tagged human BTK expressed in baculovirus infected Sf9 insect cells using Poly(4:1 Glu,Tyr) peptide substrate incubated for 60 mins by ADP-Glo luminescence assay
Lab note: compare IC50 with 700 pM, writing Y if less and N if equal or more.

Examples from the recorded data:
In the record for C=CC(=O)Nc1cccc(Nc2nc(Nc3ccc(OCCCN4CCOCC4)cc3C)ncc2Cl)c1 , is IC50 less than 700 pM?
N

In the record for C=CC(=O)Nc1cccc(Nc2nc(Nc3ccc(OC)c(OCCCN4CCOCC4)c3)ncc2Cl)c1 , is IC50 less than 700 pM?
N

In the record for C=CC(=O)Nc1cccc(Nc2nc(Nc3ccc(OCCCN4CCN(CC)CC4)c(Cl)c3)ncc2Cl)c1 , is IC50 less than 700 pM?
Y

In the record for C=CC(=O)Nc1cccc(Nc2nc(Nc3ccc(OCC(=O)N4CCOCC4)c(OC)c3)ncc2Cl)c1 , is IC50 less than 700 pM?
N

In the record for C=CC(=O)Nc1cccc(Nc2nc(Nc3ccc(OCC(=O)N4CCOCC4)c(Cl)c3)ncc2Cl)c1 , is IC50 less than 700 pM?
N

Further cases:
In the record for C=CC(=O)Nc1cccc(Nc2nc(Nc3ccc(OCCCN4CCN(C)CC4)cc3C)ncc2Cl)c1 , is IC50 less than 700 pM?
N

In the record for C=CC(=O)Nc1cccc(Nc2nc(Nc3ccc(OCCCN4CCOCC4)cc3)ncc2Cl)c1 , is IC50 less than 700 pM?
Y

###

What pIC50 was measured for each of the following?
EXPERIMENTAL TARGET: Tyrosine-protein kinase BTK (Homo sapiens, UniProt Q06187)
Sequence (Q06187 whole entry): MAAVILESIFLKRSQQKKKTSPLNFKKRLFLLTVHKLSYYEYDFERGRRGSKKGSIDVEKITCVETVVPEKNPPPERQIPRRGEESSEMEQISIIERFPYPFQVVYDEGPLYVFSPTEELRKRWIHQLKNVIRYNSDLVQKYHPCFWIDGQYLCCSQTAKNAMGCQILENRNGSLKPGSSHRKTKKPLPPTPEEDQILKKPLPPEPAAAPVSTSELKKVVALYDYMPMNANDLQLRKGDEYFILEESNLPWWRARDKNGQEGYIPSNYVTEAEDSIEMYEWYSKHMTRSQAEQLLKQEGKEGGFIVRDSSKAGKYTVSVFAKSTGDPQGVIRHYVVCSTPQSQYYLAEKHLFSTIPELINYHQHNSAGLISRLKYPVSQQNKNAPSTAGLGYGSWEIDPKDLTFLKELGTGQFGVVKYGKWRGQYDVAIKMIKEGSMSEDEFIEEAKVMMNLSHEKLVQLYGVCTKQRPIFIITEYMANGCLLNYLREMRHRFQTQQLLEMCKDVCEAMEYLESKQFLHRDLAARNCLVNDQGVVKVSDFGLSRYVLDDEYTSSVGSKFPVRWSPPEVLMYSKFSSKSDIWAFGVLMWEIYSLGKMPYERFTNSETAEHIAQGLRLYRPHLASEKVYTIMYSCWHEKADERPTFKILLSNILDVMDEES
TEST PROTOCOL: Inhibition of recombinant full-length N-terminal His-tagged human BTK expressed in baculovirus infected Sf9 insect cells using Poly(4:1 Glu,Tyr) peptide substrate incubated for 60 mins by ADP-Glo luminescence assay
Numbers only, as −log10 of the molar value.

Annotate the molecule C=CC(=O)Nc1cccc(Nc2nc(Nc3ccc(OCC(=O)N4CCOCC4)cc3)ncc2Cl)c1 with its measured pIC50.
9.00

Go through the items and report each one's pIC50.
1. C=CC(=O)Nc1cccc(Nc2nc(Nc3ccc(OCCCN4CCN(CC)CC4)cc3C)ncc2F)c1
2. C=CC(=O)Nc1cccc(Nc2nc(Nc3ccc(OCC(=O)N4CCOCC4)c(OC)c3)ncc2F)c1
3. C=CC(=O)Nc1cccc(Nc2nc(Nc3ccc(OCCCN4CCOCC4)c(OC)c3)ncc2Cl)c1

7.05
7.77
7.50

###

Test system: Ramos
TEST PROTOCOL: Antiproliferative activity against human Ramos cells after 72 hrs by CCK-8 assay
pIC50: −log10 of the molar value.
Classification field: enter yes (1) for pIC50 values not below 5, no (0) for values below it.

Examples from the recorded data:
// inclusive: pIC50 at least 5? input: C=CC(=O)Nc1cccc(Nc2nc(Nc3ccc(OCC(=O)N4CCOCC4)c(Cl)c3)ncc2Cl)c1
yes (1)

// inclusive: pIC50 at least 5? input: C=CC(=O)Nc1cccc(Nc2nc(Nc3ccc(OCCCN4CCOCC4)c(OC)c3)ncc2Cl)c1
yes (1)

// inclusive: pIC50 at least 5? input: C=CC(=O)Nc1cccc(Nc2nc(Nc3ccc(OCCCN4CCOCC4)cc3)ncc2Cl)c1
yes (1)

// inclusive: pIC50 at least 5? input: C=CC(=O)Nc1cccc(Nc2nc(Nc3ccc(OCCCN4CCOCC4)c(Cl)c3)ncc2Cl)c1
yes (1)

// inclusive: pIC50 at least 5? input: C=CC(=O)Nc1cccc(Nc2nc(Nc3ccc(OCC(=O)N4CCOCC4)cc3)ncc2Cl)c1
no (0)

Further cases:
// inclusive: pIC50 at least 5? input: C=CC(=O)N1CCC[C@@H](n2nc(-c3ccc(Oc4ccccc4)cc3)c3c(N)ncnc32)C1
yes (1)

// inclusive: pIC50 at least 5? input: C=CC(=O)Nc1cccc(Nc2nc(Nc3ccc(OCCCN4CCN(CC)CC4)cc3C)ncc2F)c1
no (0)

// inclusive: pIC50 at least 5? input: C=CC(=O)Nc1cccc(Nc2nc(Nc3ccc(OCCOC)cc3)ncc2F)c1
no (0)
